// provenance: patent US20170088605A1

Below, each of the binders is paired with its reported neutralization EC90 value.
# tgt: T1, BKV serotype I infectious virus (VP1) (BK virus serotype I, UniProt P03088 1-362)
# T1 sequence (looked up): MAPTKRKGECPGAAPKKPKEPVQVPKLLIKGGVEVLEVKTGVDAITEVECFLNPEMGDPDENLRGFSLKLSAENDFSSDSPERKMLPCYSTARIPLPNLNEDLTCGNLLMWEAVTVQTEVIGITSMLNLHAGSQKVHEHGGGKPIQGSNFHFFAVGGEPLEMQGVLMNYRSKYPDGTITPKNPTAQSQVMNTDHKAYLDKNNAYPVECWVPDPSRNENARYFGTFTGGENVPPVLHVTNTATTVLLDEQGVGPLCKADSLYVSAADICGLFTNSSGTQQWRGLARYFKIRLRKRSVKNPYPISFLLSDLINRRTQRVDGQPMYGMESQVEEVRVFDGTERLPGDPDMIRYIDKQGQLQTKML
# run_description: cell-based or functional assay
property_measured: neutralization EC90 (µg/mL)

P8D11A (antibody, V domains shown) VH: QVQLVESGGTLVQPGGSLRLSCAASGFTFSNYWMTWVRQAPGKGLEWVANIKKDGSEKYYVDSVRGRFTISRDNAKNSLFLQMNSLRPEDTAVYFCATVRSGRYFALDDWGQGTLVTVSS VL: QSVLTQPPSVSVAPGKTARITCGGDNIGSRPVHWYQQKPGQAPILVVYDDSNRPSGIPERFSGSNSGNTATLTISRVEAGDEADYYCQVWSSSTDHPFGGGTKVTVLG; 0.19
P7G11A (antibody, human IgG1, lambda, V domains shown) VH: QVQLQESGPGLVKPSQTLSLTCTVSGGSISSGGYSWSWIRQPPGKGLEYIGYIYYRGTTYYNPSLKSRVTISVDTSNNQISLKLSSVTAADTAVYYCARALTHLVGVGWFDPWGQGTMVTVSS VL: QSVLTQPPSVSAAPGQKVTISCSGGSSNLGSNYVSWYQQLPGTAPKLLIYDNNKRPSGIPDRFSGSKSGTSATLGITGLQTGDEADYYCGTWDGSLSAWVFGGGTKVTVLG; 0.34
